Provide the reported koff of each item.
Target: T1, recombinant human IL-12 (rhIL-12) (human, UniProt P29459 23-219; P29460 23-328)
T1 construct: disulfide-linked p35/p40 heterodimer (p70); also called IL-12 p70; rec. human IL12
T1 sequence (looked up) 1: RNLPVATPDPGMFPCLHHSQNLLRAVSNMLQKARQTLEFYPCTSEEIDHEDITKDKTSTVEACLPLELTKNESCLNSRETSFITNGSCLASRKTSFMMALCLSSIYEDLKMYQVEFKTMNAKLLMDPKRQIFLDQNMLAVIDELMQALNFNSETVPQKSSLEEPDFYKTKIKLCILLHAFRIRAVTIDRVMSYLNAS
T1 sequence (looked up) 2: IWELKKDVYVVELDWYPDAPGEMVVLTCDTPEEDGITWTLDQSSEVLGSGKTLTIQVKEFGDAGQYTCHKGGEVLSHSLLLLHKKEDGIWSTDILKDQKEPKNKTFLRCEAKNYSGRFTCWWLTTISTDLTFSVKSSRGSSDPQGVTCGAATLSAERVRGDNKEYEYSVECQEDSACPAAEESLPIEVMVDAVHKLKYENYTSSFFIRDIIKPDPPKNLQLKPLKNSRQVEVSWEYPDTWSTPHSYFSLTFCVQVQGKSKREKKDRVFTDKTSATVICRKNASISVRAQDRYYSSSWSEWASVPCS
Assay: BIAcore SPR, IL-12 on chip
Be sure to follow the number with its unit.

Solved cases below.
>  <binder>
A12 (scFv, V domains shown, scFv clone) VH: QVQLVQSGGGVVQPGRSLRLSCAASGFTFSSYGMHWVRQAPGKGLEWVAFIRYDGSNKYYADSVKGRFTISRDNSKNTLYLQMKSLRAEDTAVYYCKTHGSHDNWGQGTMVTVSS VL: SYVLTQPPSVSGTPGQRVTISCSGGRSNIGSNTVKWYQQLPGTAPKLLIYGNDQRPSGVPDRFSGSKSGTSASLAITGVQAEDEADYYCQSYDRGTTPRPMFGTGTKVTVL

>  <koff>
0.000557 s⁻¹

$$$$
>  <binder>
99-C11 (scFv, V domains shown, scFv clone) VH: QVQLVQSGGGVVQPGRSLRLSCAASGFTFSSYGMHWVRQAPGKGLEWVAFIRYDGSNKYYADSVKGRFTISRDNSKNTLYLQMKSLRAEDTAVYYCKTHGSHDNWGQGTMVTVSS VL: SYVLTQPPSVSGTPGQRVTISCSGGRSNIGSNTVKWYQQLPGTAPKLLIYGNDQRPSGVPDRFSGSKSGTSASLAITGVQAEDEADYYCQSYDSGFTGSRVFGTGTKVTVL

>  <koff>
0.0057 s⁻¹

$$$$

Proceeding to the next binder to report its koff.
Q: koff for 99-B11 (scFv, V domains shown, scFv clone) VH: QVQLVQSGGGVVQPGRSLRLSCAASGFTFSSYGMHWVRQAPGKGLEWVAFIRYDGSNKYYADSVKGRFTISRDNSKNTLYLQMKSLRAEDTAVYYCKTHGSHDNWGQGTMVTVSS VL: SYVLTQPPSVSGTPGQRVTISCSGGRSNIGSNTVKWYQQLPGTAPKLLIYGNDQRPSGVPDRFSGSKSGTSASLAITGVQAEDEADYYCQSYDSGYTGSRVFGTGTKVTVL ?
Result: 0.0054 s⁻¹
